Origin of measurements: ChEMBL document CHEMBL3507680

# assay method text: Human HepG2 cell viability assay in 384 well format
# Type: toxicity, cell-based
# Design: dose 125 nL, time 70.5 hour; concentration not given beside the values
# cond: HepG2 cells, read-out: Inhibition
Reported cytotoxicity at 70.5 h values for a set of molecules
measurement kind: cytotoxicity at 70.5 h (%)

molecule	measurement kind	measured
Cc1cnc(C)c(Oc2ccc(CN3CCCC3)cc2Cl)n1	cytotoxicity at 70.5 h	-4.06
COc1cc(CNC(C)c2nnc3n2CCC3)cc(OC)c1 (stereo unspecified)	cytotoxicity at 70.5 h	-9.55
COCCCn1ccc(NC2CCSCC2)n1	cytotoxicity at 70.5 h	-8.74
Cc1cc(C)n2ncc(CN3CCC(n4cc(CCO)nn4)CC3)c2n1	cytotoxicity at 70.5 h	-1.82
CC1(C(=O)NCCCOc2ccccc2F)CC(=O)N2C=CC=CC2=N1 (stereo unspecified)	cytotoxicity at 70.5 h	0.00385
N#CCCN(c1ccccc1)S(=O)(=O)CC1CCCCO1 (stereo unspecified)	cytotoxicity at 70.5 h	-9.85

====

# assay method text: Human HepG2 cell viability assay in 384 well format
# Type: toxicity, cell-based
# Set-up: dose 125 nL, time 70.5 hour; concentration not given beside the values
# cond: HepG2 cells, read-out: Inhibition
Below: a set of entries, each annotated with reported cytotoxicity at 70.5 h.

compound	unit name	cytotoxicity at 70.5 h
CO[C@H]1CN(C(=O)OC(C)(C)C)CC1NCc1cccn1C (some centres not stated)	%	-8.94
CCC(C)Oc1ccc(CNCCNC(C)=O)cc1Cl (configuration not stated)	%	-3.38
COCCNC(=O)[C@H]1C[C@@H]2CCN(c3ncccn3)C[C@H]2O1	%	-1.44
CCN(Cc1noc(C(C)(C)C)n1)Cc1ccc(C#N)cc1F	%	-6.26
COCCS(=O)(=O)NC(C)c1ccccc1Br (configuration not stated)	%	-0.0652
CN(CC(=O)Nc1cnn(-c2ccccc2S(C)(=O)=O)c1)C1CC1	%	-3.94
Cc1ccc(NC(C)C(=O)N(C)Cc2cccc(F)c2)cc1C(N)=O (configuration not stated)	%	-4.3
CN(C)S(=O)(=O)N1CC[C@]2(C[C@H](OCc3ccccn3)CO2)C1	%	-0.384
CCC(=O)NC(C)c1ccccc1C (configuration not stated)	%	0.0127
O=c1[nH]cccc1-c1nccc(C2(c3ccccc3Cl)CCNCC2)n1	%	29.1
Cc1cc(C)nc(Nc2cccc(C3CCCN(C(C)C)C3)n2)n1 (configuration not stated)	%	-6.28
CC(C)N1CCCC(Cc2cncc(Br)c2)CC1 (configuration not stated)	%	-4.98

====

Measured cytotoxicity at 70.5 h, listed per entry for reference.
# assay method text: Human HepG2 cell viability assay in 384 well format
# Format: toxicity, cell-based
# Design: dose 125 nL, time 70.5 hour; concentration not given beside the values
# cond: HepG2 cells, read-out: Inhibition

compound	unit name	cytotoxicity at 70.5 h
Cc1nnc(CN2CCC3(CCC(=O)N(C4CC4)C3)CC2)o1	%	11.6
COc1ccc(C(C)Nc2cnn(C)c(=O)c2Cl)cc1OC (centres undefined)	%	-3.5
CCN1CC(C(=O)NCc2ccnc(-n3ccnc3C)c2)CC1=O (centres undefined)	%	-1.78
COc1cccc(-c2n[nH]c3c2CN(C(=O)c2cccc(=O)[nH]2)CC3)c1	%	-6.52
Cc1cc(C(=O)NC2CCCN(c3ccccc3)C2=O)on1 (centres undefined)	%	0.654
CCOC(=O)Cc1csc(NC(=O)c2cc(=O)c(OC)c[nH]2)n1	%	2.05
COCCNc1ccc(CC2CCCN(C3CCOCC3)C2)nn1 (centres undefined)	%	-4.94
OC[C@@H]1[C@@H](c2ccccc2)CN2CCN(c3ccccn3)C[C@H]12	%	-3.64
C[C@@H]1CN(Cc2ccco2)CCN1C(=O)Cc1ccccc1F	%	-10.6
Cn1ccc(C(=O)NC2CCC23CCN(CC2CCOCC2)CC3)c1 (centres undefined)	%	3.91
CCOCC1CN(Cc2cnn(C)c2)Cc2nn(C)cc21 (centres undefined)	%	2.42
O=c1[nH]nc(CNCc2ccc(OC34CCCN(CC3)C4)cc2)[nH]1 (centres undefined)	%	-4.91
COC1COC2(CCN(Cc3cccc(Cl)c3)CC2)C1 (centres undefined)	%	-9.84
COc1ccc2c(c1)c(C(=O)Nc1nnn[nH]1)cn2C(C)C	%	24.1
Fc1cnc(N2CCN3C[C@H](Oc4cncnc4)C[C@H]3C2)nc1	%	5.05
CNc1cc2c(nn1)CCN(C(=O)c1cc(C)no1)C2	%	-7.41
CCn1cnnc1CNC(=O)N(C)C(C)c1cccs1 (centres undefined)	%	-0.961
CCc1cc(-c2nccn2-c2ccccc2CN2CCOCC2)on1	%	16.1
COc1nn(C)c2c1CCCN(C(=O)c1ccc[nH]1)C2	%	-99.5
CC1CCC(NCCNC(=O)c2cccs2)CC1 (centres undefined)	%	-7.09
CN(C)c1nc2c(c(N3CCc4ccccc4C3)n1)CCNC2	%	0.802
CN(C)c1cccc(C(=O)N2CCCc3cc(OC(F)(F)F)ccc32)c1	%	-9.8
Cc1nsc(NC(=O)NC2(CN3CCOCC3)CCCC2)n1	%	-8.03
COc1ccc(-n2cccn2)c(CN2CCOCC(CN(C)C)C2)c1 (centres undefined)	%	18.8
